TARGET_SYSTEM: Fibrinogen beta chain (Homo sapiens) (UniProt P02675)
Sequence (P02675 whole entry, looked up): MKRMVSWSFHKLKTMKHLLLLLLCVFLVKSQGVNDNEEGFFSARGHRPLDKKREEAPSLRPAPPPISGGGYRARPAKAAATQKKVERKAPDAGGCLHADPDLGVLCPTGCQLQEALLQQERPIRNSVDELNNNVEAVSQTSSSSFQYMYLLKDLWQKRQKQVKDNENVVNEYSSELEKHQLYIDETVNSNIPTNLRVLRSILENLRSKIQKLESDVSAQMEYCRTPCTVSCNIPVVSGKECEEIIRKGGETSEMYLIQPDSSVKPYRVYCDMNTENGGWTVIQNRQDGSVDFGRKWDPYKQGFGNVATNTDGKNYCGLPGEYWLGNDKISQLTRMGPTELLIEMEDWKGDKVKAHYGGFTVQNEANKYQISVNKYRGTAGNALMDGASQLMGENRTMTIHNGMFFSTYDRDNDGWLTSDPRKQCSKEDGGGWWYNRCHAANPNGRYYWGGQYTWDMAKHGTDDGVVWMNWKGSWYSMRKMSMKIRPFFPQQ
TEST_SUMMARY: inhibitors of Tn6 peptide binding to fibrin DD(E), primary screen, biochemical, fluorescence polarization, human fibrin, Tn6 probe (AID 720509);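 note: 0% = median of all compound wells on the plate and 100% = blocking peptide control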
RUN_CONDITIONS: Fibrin DD(E) TRITC-Tn6 fluorescence polarization displacement; at 8.3 µM; active compounds read high
The campaign covered roughly 370,000 compounds. About 760 (0.21%) were called active. Shown is part of a subset that was picked to be rich in actives.
Readings of inhibition for the listed molecules
RECORDED_ENDPOINT: inhibition (%)

MOLECULE	UNIT_SYMBOL	REPORTED_RESULT
COc1ccc(Nc2nc(-c3cccnc3)nc3ccccc23)cn1	%	15.3
O=C(NNc1cc(Cl)cc(Cl)c1)c1c(F)cccc1Cl	%	1.43
CCN(CC)CCCC(C)n1c2nc(=O)[nH]c(=O)c-2nc2cc(Cl)ccc21 (configuration not stated)	%	0.53
COCCn1c(SCC(=O)Nc2ccc3c(c2)CCC3)nc2ccccc2c1=O	%	-3.38
Cc1ccc(S(=O)(=O)NC2(C(F)(F)F)NC(=O)N(CCc3ccccc3)C2=O)cc1 (configuration not stated)	%	1.91
O=C(Nc1cccc(-c2nc3ccccc3[nH]2)c1)c1ccc(C(=O)Nc2cccc(-c3nc4ccccc4[nH]3)c2)cc1	%	19.9
Cc1noc(C)c1CSCC(=O)Nc1ccc(Br)cc1Cl	%	-5.8
CC(=O)N1CCCN(C2=Nc3ccccc3Sc3ccccc32)CC1	%	-3.1
C=CC(COCc1ccccc1)N(CC(=O)OC)S(=O)(=O)c1cc(Br)ccc1OC (configuration not stated)	%	-3.84
COC(=O)C(=Nc1ccccc1)/C(C(=O)C(=O)N(C)c1ccccc1)=C(\O)c1ccc(Cl)cc1	%	-4.47
COc1ccc(CCNC(=O)C(=O)NCC2CCCN2S(=O)(=O)c2cccs2)cc1OC (configuration not stated)	%	-8.21
COc1cc(OC)cc(-c2c(-c3cccs3)c3cc(-c4ccc(OC)cc4F)ccc3n2C)c1	%	8.62
COc1ccc(Nc2nc(-c3ccccc3)cs2)cc1	%	16.7
O=C(CSc1n[nH]c(-c2cccnc2)n1)Nc1ccnc2ccccc12	%	-0.07
COc1ccc(N2C(=O)NC(NS(=O)(=O)c3ccc(Cl)cc3)(C(F)(F)F)C2=O)cc1 (configuration not stated)	%	16.5
CN1CCN(S(=O)(=O)c2ccc(Nc3ccc(F)cc3)nc2)CC1	%	-3.71
COc1ccc([C@H]2OC(=O)C[C@H]2C(=O)N2CCN(c3ccccc3F)CC2)cc1OC	%	-0.84
Cn1ccc(=Nc2ccc(NC(=O)c3ccc(N=c4ccn(C)c5ccc([N+](=O)[O-])cc45)cc3)cc2)cc1	%	-6.27
COc1cc(NC(=S)NNC(=O)CC(C)C)c(OC)cc1Cl	%	9.57
COc1ccc(S(=O)(=O)NC2(C(F)(F)F)N=C3SCCN3C2=O)cc1 (configuration not stated)	%	3.58
Cc1oc2nc(SCC(=O)NCc3cccnc3)nc(N)c2c1C	%	7.93
COc1ccc(CC(=O)Nc2c3c(nn2-c2cccc(Cl)c2)CS(=O)C3)cc1 (configuration not stated)	%	-10.3
O=C(CCl)NNc1cccc(Cl)n1	%	30.8
COc1ccc(NC(=O)C2=NNC(=O)CC2)cc1S(=O)(=O)N1CCCCC1	%	3.03
Oc1ccc(N=Cc2sc3ccccc3c2Cl)cc1	%	36.1
O=C(NCc1ccccc1Cl)C1CCN(c2ncnc3c2nc2n3CCCCC2)CC1	%	-4.73
Cc1oc2nc(SCC(=O)Nc3ccc(S(N)(=O)=O)cc3)nc(NC(=O)c3ccccc3)c2c1C	%	24.4
CCOC(=O)N1CCN(Cc2nc(N)nc(Nc3ccc(C)cc3)n2)CC1	%	17
COC(=O)c1cc(NC(=O)c2cc(C(C)(C)C)nn2Cc2cccc(C)c2)ccc1N1CCOCC1	%	4.88
COc1ccc(C(CNC(=O)c2ccc(OCc3cscn3)cc2)N2CCCC2)cc1 (configuration not stated)	%	2.19
COc1ccc(C)cc1NC(=S)Nc1ccccc1SC	%	-8.72
COc1ccc(-c2c(C)nn3c(N4CCC(C(=O)N5CCCCC5)CC4)cc(C)nc23)cc1OC	%	-3.53
O=C(Cc1c(Cl)cccc1Cl)NC1CC1	%	6.01
Cc1cc(-c2nnc(SCC(=O)Nc3ccc(S(N)(=O)=O)cc3)n2N)n[nH]1	%	-3.55
CCOC(=O)C1CCCN(Cc2nc(N)nc(Nc3ccc(C)cc3)n2)C1 (configuration not stated)	%	-3.73
N#CC(=C1SC=CS1)c1nc(-c2ccccc2)cs1	%	4.25
CC(=O)OC(C)C[N+](C)(C)C (configuration not stated)	%	3.71
CCN(CC)C(=O)CC[C@@H]1CC[C@]2(CCCN(S(=O)(=O)C3CCCCC3)C2)O1	%	-5.4
CCc1nc2c(OCc3ccc(C(F)(F)F)cc3)cccn2c1N(C)C(=O)CC(C)C	%	3.22
C[C@@H]1CN([C@H](C)CO)S(=O)(=O)c2ccc(C#CC3CCCCC3)cc2O[C@H]1CN(C)C(=O)Cc1ccncc1	%	2.11
Cc1cc(=O)oc(C)c1C(=O)Nc1cnc2ccccc2c1	%	-3.11
Cc1cc2nc3c(=O)[nH]c(=O)nc-3n(C[C@H](O)[C@H](O)[C@H](O)CO)c2cc1C	%	16.3
